tested on: NCI-H322M lung; assay: NCI-60 one-dose screen, 48 h; details: 10 µM unless noted
About 83,000 compounds went through this panel and 20% of them were active in at least one assay; those are over-represented in the sample as a whole. Activity calls are given as the source filed them. The calls were made as follows: active = growth percent below 10; inactive = the rest.
Respond using exactly one of the listed classes: t for active, f for inactive

Answer briefly: the call reported for CN(C)CCCOc1c2ccc(Cl)cc2nc2c1oc1ccccc12 in this assay.
t

Answer briefly: the call reported for COc1cc2nc(-c3ccc(C(F)(F)F)cc3)cc(OCCCNCC3CCCO3)c2cc1OC (centres undefined) in this assay.
f

Answer briefly: the call reported for COc1cc(/C=C/C(=O)c2ccc(F)cc2)ccc1Oc1nc(NCCO)nc(N2CCOCC2)n1 in this assay.
f

Answer briefly: the call reported for O=C(CCN1C(=O)/C(=C/c2ccccc2)SC1=S)N1CCOCC1 in this assay.
f

Answer briefly: the call reported for C#Cc1nc(C2=C(C)C(=N\O)/C(=N/O)C2)cs1 in this assay.
f

Answer briefly: the call reported for COc1cc(/C=C/C(=O)c2ccc(Cl)cc2)ccc1Oc1nc(NCCO)nc(N2CCOCC2)n1 in this assay.
f

Answer briefly: the call reported for N#Cc1ccc(C(=O)CSc2nc(Nc3ccc(S(N)(=O)=O)cc3)c3ccccc3n2)cc1 in this assay.
f

Answer briefly: the call reported for NS(=O)(=O)c1cccc(Nc2nc(SCC(=O)c3ccc(Cl)cc3)nc3ccccc23)c1 in this assay.
f

Answer briefly: the call reported for O=C1[C@H]2Cc3c([nH]c4ccccc34)[C@@H](c3ccc(Br)cc3)N2C(=O)CN1C1CCN(Cc2ccccc2)CC1 in this assay.
f

* * *

Test system: KM12 colon
Assay: NCI-60 one-dose screen, 48 h (100 = growth as untreated, 0 = no growth, -100 = all killed)
Conditions: 10 µM unless noted
Experimental: Growth inhibition of the KM12 human tumor cell line is measured as a screen for anti-cancer activity. Cells are grown in 96 well plates and exposed to the test compound for 48 hours. Compounds are tested at a single concentration, which is 10^-5 M for most compounds. The reported endpoint is percent growth (GI% or GIPRCNT), where numbers from 0 - 100% represent growth inhibition, and numbers from -100% - 0 represent cell death. For example, a value of 40 represents 60% growth inhibition. […]
The panel holds about 83,000 compounds, 20% with a hit somewhere; the sample as a whole holds those more often.
MEASURED PROPERTY: growth (%)
Give the value in % but do not write % after it.

For the record COC(=O)C(C)NS(=O)(=O)/N=C1\NC(=O)NC1=C(Cl)Cl (stereo not given) , what value of growth is listed for KM12 colon?
105

For the record COc1cc2nc(-c3ccc(Cl)cc3)cc(OCCCNCC3CCCO3)c2cc1OC (stereo not given) , what value of growth is listed for KM12 colon?
39.8

For the record CCOC(=O)c1c(Nc2ccccc2)nn2c(N)c(C#N)c(-c3ccccc3)nc12 , what value of growth is listed for KM12 colon?
77.7

For the record Nc1nc(N)c2c(n1)NC(c1ccc(F)cc1)CC(c1ccc(Nc3nc(NCCO)nc(Nc4ccc(Cl)cc4)n3)cc1)=N2 (stereo not given) , what value of growth is listed for KM12 colon?
-16.9

For the record CC(C)(C)Nc1nc2c(OCCc3ccccc3)cccn2c1-c1ccc(Cl)cc1 , what value of growth is listed for KM12 colon?
32.7
